TGT: Thyroid hormone receptor alpha (Homo sapiens, UniProt P10827)
Sequence (P10827 whole entry): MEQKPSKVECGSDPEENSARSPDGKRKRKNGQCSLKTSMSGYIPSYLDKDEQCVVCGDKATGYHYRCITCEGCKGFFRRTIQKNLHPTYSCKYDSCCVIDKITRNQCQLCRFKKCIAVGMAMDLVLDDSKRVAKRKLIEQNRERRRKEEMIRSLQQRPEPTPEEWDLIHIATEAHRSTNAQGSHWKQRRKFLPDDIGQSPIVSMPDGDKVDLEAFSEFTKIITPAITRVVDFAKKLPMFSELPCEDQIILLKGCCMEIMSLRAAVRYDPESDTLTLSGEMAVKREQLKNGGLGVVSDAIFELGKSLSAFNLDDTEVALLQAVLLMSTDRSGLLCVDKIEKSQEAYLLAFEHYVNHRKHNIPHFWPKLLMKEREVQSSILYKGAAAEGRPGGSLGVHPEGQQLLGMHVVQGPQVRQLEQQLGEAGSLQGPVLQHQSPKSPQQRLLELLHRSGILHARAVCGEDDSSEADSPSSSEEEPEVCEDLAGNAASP
ASSAY_REMARKS: TRalpha-Binding Assay and Thyroid Response Element (TRAFalpha1) Reporter Assay.
MEASUREMENT_CONTEXT: pH 7; 4 °C
Kindly supply the reported pEC50 values for the records listed here.
Recall that pEC50 is obtained by taking minus log10 of the concentration measured in molar.

Write down the reported pEC50 of O=C(O)Cc1cc(Br)c(OCC2CCCCC2)c(Br)c1 , test system: Thyroid hormone receptor alpha (Homo sapiens, UniProt P10827).
9.38

Lookup: pEC50 / Thyroid hormone receptor alpha (Homo sapiens, UniProt P10827) / O=C(O)CCc1cc(Br)c(OCC2CCCCC2)c(Br)c1
9.28

State its pEC50 on Thyroid hormone receptor alpha (Homo sapiens, UniProt P10827): CCCCCCOc1c(Br)cc(CC(=O)O)cc1Br
9.15

Please tell me: pEC50 of CCC(CC)COc1c(Br)cc(CC(=O)O)cc1Br , system Thyroid hormone receptor alpha (Homo sapiens, UniProt P10827)?
9.09

Request - read-out pEC50 | tested on Thyroid hormone receptor alpha (Homo sapiens, UniProt P10827) | molecule CCCCCCOc1c(Br)cc(CCC(=O)O)cc1Br
9.22

----------
TGT: Thyroid hormone receptor beta (Homo sapiens)
Sequence (P10828 whole entry): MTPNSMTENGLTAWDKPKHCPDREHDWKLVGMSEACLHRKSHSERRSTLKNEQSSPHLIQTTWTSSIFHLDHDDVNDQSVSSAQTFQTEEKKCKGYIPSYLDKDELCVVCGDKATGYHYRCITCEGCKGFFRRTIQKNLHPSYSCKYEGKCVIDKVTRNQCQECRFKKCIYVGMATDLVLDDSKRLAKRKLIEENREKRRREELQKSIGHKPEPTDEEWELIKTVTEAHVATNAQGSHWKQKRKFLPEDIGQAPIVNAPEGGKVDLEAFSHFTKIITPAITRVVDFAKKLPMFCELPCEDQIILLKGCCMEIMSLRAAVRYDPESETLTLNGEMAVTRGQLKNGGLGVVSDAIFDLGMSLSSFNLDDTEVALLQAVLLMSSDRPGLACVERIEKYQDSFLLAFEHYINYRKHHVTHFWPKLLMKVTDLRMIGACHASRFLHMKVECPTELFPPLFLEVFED
ASSAY_REMARKS: TRbeta-Binding Assay and Thyroid Response Element (TRAFbeta1) Reporter Assay.
MEASUREMENT_CONTEXT: pH 7; 4 °C
Kindly supply the reported EC50 values for the records listed here.
Answer format: numeric, nM implied, no suffix.

Need EC50 of CCCCCCOc1c(Br)cc(CC(=O)O)cc1Br , thanks.
0.8

// EC50 lookup, key: CCCCCCOc1c(Br)cc(CCC(=O)O)cc1Br
1

// returns reported EC50 for input O=C(O)Cc1cc(Br)c(OCC2CCCCC2)c(Br)c1
0.52

Please give the measured EC50 for this molecule: O=C(O)CCc1cc(Br)c(OCC2CCCCC2)c(Br)c1
0.12

// returns reported EC50 for input CCC(CC)COc1c(Br)cc(CC(=O)O)cc1Br
0.7

Sourced from BindingDB's records for doi:10.1021/jm050004k
